measurement_type: melting point

Recorded results for 3 compounds are shown here.
>  <compound>
COc1ccc(Sc2nc(-c3ccc(OC)cc3)c(-c3ccc(OC)cc3)[nH]2)cc1

>  <melting point>
148 °C

$$$$
>  <compound>
NC(CSSCCCN1C(=O)NCC1c1ccccc1)C(=O)O (centres undefined)

>  <melting point>
172 to 178 °C

$$$$
>  <compound>
CC(C)C[C@@H]1NC(=O)O[C@H]1CCOS(C)(=O)=O

>  <melting point>
99 to 100 °C

$$$$

The measured melting point associated with CS(=O)(=O)Nc1ccc2c(c1)CCN(Cc1ccc3cc(NS(C)(=O)=O)ccc3n1)CC2 reads 207 to 210 °C

For this compound ( CC1CNc2c([N+](=O)[O-])cnn2C1 (centres undefined) ), measured melting point is 190 to 192 °C

Record summary for Cc1cc(C)c(Nc2nc(C)ccc2S(=O)(=O)c2ccc(OCc3ccccc3C#N)cc2)c(C)c1 : reported melting point = 208 to 210 °C

Entry CC(C)(C)c1nc2c(N)nc(-c3ccncc3)nc2[nH]1 ; melting point = 272 to 274 °C

The reported melting point of the compound S=C(NCCN1CCOCC1)Nc1nccs1 was 150 to 152 °C

melting point measured on CCCC(C)(C)c1cc(C=O)cc(C(C)(C)CCC)c1O = 90 to 92 °C

The measured melting point associated with COc1cccc(C2=C(C(=O)c3ccc(O)cc3)c3ccc(OC)cc3CC2)c1 reads 197 to 198 °C

Looking up O=P(c1ccccc1)(c1ccccc1)c1nc2ccccc2nc1P(=O)(c1ccccc1)c1ccccc1 , I see its melting point listed as 258 to 272 °C

Note to self: melting point recorded for CN(CC(O)CN(C)S(=O)(=O)C(F)(F)C(F)(F)C(F)(F)C(F)(F)F)S(=O)(=O)C(F)(F)F (centres undefined) was 79 to 85 °C

Item: CC(Cc1cc(C(C)(C)C)c(O)c(C(C)(C)C)c1)C(=O)Oc1ccc(C(=O)c2cc(C(C)(C)C)c(O)c(C(C)(C)C)c2)c(O)c1 (centres undefined) | melting point: 163 to 165 °C

Record COc1cc(OCc2ccccn2)ccc1/C=C/c1cc(/C=C/c2ccc3ccn(C)c3c2)[nH]n1 , field melting point: 172 to 174 °C

Data point: CC(C)(C)C(=O)Nc1nc(Cl)c2c(n1)[nH]c1ccccc12 ; melting point = 234 °C

Notebook: CCN(CC)CC=CC(=O)Nc1ccc2ncnc(Nc3cccc(Br)c3)c2c1 , melting point read as 196 to 199 °C

GET /value?item= CS(=O)c1ccc(Oc2ccc(Cl)c(Cl)c2)nc1C(N)=O (centres undefined) &field=melting point returns 185 to 187 °C

O=C1CCC(c2ccccc2)(c2ccccc2)C2CN(C(Cc3ccccc3)=NCc3ccccc3)CC12 (centres undefined) yielded melting point of 165 °C

The compound identified as Nc1c2c(nc3cccc(Cl)c13)C(=O)CCC2 registered its melting point at 205 °C

====

measurement_type: melting point

>  <smiles_notation>
O=c1[nH]c2cc(Cl)ccc2c(O)c1Sc1ccc(O)cc1

>  <data_value>
> 300 °C

$$$$
>  <smiles_notation>
CCOC(=O)N(C)CCCC1=CC2(CCCC2)c2ccccc21

>  <data_value>
90 °C

$$$$
>  <smiles_notation>
CCOC(=O)c1ccc2nc(N[C@@H]3CCc4ccccc43)ccc2c1

>  <data_value>
137 °C

$$$$
>  <smiles_notation>
O=C1C(Cl)=C(Cl)C(=O)N1c1ccc(Oc2ccccc2)cc1

>  <data_value>
180 to 181 °C

$$$$
>  <smiles_notation>
Cc1nc(-c2ccc(-c3cccs3)cc2)c(-c2ccc(S(C)(=O)=O)cc2)o1

>  <data_value>
183 to 185 °C

$$$$

# melting point (compound: C=CS(=O)(=O)c1ccc(C)cc1 ) is 66 °C

# melting point of O=c1c2ccc(Cl)cc2[nH]n1-c1ccccc1F = 205 to 215 °C

Value of melting point reported for the compound CCOC(=O)c1cn(-c2nncs2)c2nc(Cl)c(F)cc2c1=O is 201 to 203 °C

For COc1ccc(C(=O)Nc2ccc(Cl)c(Cl)c2)cc1NC(=S)Nc1ccc(S(N)(=O)=O)cc1 the compound record lists melting point as 190 to 193 °C

// field: melting point; key: N#Cc1ccc(NC(=S)N2CCN(c3cnccn3)CC2)cc1 ; value = 208 to 210 °C
